Origin of measurements: patent US7858635B2

Could you please report measured Emax for the items listed next?
- target: M1 muscarinic receptor (Homo sapiens, UniProt P11229)
- Construct: expressed in transfected cells; host or cells: CHO cells (M1-CHO, under zeocin and G418 selection)
- Sequence (P11229 1-460): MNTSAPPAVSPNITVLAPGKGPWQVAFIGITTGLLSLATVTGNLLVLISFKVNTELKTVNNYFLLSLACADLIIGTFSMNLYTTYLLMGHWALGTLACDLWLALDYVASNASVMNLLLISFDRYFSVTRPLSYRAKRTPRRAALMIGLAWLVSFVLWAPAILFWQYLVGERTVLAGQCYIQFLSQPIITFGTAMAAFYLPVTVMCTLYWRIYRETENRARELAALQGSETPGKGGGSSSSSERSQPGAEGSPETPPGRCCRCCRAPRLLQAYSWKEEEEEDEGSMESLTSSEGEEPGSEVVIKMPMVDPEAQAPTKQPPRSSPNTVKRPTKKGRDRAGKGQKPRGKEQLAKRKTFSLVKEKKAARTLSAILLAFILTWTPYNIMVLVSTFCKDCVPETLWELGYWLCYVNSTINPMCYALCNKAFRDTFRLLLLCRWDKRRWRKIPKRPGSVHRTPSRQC
- experimental_details: Functional mobilization of intracellular calcium (FLIPR, Fluo-3), M1-CHO cells
- Assay type: cell-based
- test_context: compound nos. 1-454; 100% efficacy is the maximum response obtained with the Carbachol control; read-out: M1 Efficacy

Field: example entries. Status: answers known.
1) CC(=O)N1CC2(CCN(C3CCC(C(C)C)CC3)CC2)c2cc(F)ccc21 (centres unmarked) [compound 226] :: < 65%
2) CCCOC(=O)N1CCC(N2CCC3(CC2)CN(C(C)=O)c2ccc(C)cc23)CC1 [compound 252] :: < 65%
3) Clc1ccc2c(c1)C1(CCN(C3C[C@@H]4CCC3C4)CC1)CO2 (stereo in doubt) [compound 1] :: 65 to 85%
4) Cc1ccc2c(c1)C1(CCN(CC3CC4CCC3O4)CC1)CN2 (centres unmarked) [compound 372] :: 65 to 85%
5) CCOC(=O)N1CCC(N2CCC3(CC2)CN(C(C)=O)c2ccc(F)cc23)CC1 [compound 413] :: < 65%

Hello, I would appreciate it if you could give Emax for each entry below.
1. COCCOC(=O)N1CCC(CN2CCC3(CC2)CN(C(C)=O)c2ccc(C)cc23)CC1 [compound 419]
2. Cc1ccc2c(c1)C1(CCN(C3CC4CCC3C4)CC1)CN2S(C)(=O)=O (centres unmarked) [compound 232]
3. COC(=O)N1CCCC(N2CCC3(CC2)CN(C(C)=O)c2ccc(F)cc23)CC1 (centres unmarked) [compound 132]

["< 65%", "< 65%", "> 85%"]

====

- target: M4 muscarinic receptor (Homo sapiens)
- Construct: expressed in transfected cells; host or cells: CHO cells (M4-CHO, under puromycin, zeocin and blasticidin selection)
- Sequence (P08173 whole entry): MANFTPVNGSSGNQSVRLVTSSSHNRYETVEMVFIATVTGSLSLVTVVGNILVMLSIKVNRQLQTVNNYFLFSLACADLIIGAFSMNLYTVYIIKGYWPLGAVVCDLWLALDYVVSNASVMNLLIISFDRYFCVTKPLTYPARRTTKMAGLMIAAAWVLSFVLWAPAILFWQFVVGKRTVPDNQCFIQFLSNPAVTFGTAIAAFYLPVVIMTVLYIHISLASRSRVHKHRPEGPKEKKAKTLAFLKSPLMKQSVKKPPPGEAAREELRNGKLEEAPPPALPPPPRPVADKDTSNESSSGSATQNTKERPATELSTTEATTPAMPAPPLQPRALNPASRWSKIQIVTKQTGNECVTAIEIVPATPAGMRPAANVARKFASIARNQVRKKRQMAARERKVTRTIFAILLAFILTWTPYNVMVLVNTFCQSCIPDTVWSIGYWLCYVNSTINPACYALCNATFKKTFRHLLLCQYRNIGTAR
- experimental_details: Functional mobilization of intracellular calcium (FLIPR, Fluo-3), M4-CHO cells
- Assay type: cell-based
- test_context: compound nos. 1-454; 100% efficacy is the maximum response obtained with the Carbachol control; read-out: M4 Efficacy
Could you please report measured Emax for the items listed next?

1. CCOC(=O)N1CCC(N2CCC3(CC2)CN(C(C)=O)c2ccc(-c4cccc(F)c4)cc23)CC1 :: 55 to 70%
2. CCC(=O)CCN1CC2(CCN(C[C@@H]3C[C@H]4C=C[C@H]3C4)CC2)c2cc(F)ccc21 :: < 55%
3. Cc1ccc2c(c1)C1(CCN(C3CC4CCC3C4)CC1)CN2C(=O)OC(C)(C)C (centres unmarked) :: < 55%
4. CC(=O)N[C@H]1CC2(CCN(C3CCOCC3)CC2)c2ccccc21 :: < 55%
5. Clc1ccc2c(c1)C1(CCN(C3CC4CCC(C4)C3)CC1)CN2 (centres unmarked) :: 55 to 70%
6. CCOC(=O)N1CCC(N2CCC3(CC2)CN(C(C)=O)c2ccc(-c4ccoc4)cc23)CC1 :: < 55%
7. CCCC1CCC(N2CCC3(CC2)CNc2ccc(F)cc23)CC1 (centres unmarked) :: 55 to 70%

Request the reported Emax associated with Fc1ccc2c(c1)C1(CCN(C3CCCCC3)CC1)CN2
< 55%

====

Could you please report measured Emax for the items listed next?
- target: M1 muscarinic receptor (Homo sapiens)
- Construct: expressed in transfected cells; host or cells: CHO cells (M1-CHO, under zeocin and G418 selection)
- Sequence (P11229 1-460): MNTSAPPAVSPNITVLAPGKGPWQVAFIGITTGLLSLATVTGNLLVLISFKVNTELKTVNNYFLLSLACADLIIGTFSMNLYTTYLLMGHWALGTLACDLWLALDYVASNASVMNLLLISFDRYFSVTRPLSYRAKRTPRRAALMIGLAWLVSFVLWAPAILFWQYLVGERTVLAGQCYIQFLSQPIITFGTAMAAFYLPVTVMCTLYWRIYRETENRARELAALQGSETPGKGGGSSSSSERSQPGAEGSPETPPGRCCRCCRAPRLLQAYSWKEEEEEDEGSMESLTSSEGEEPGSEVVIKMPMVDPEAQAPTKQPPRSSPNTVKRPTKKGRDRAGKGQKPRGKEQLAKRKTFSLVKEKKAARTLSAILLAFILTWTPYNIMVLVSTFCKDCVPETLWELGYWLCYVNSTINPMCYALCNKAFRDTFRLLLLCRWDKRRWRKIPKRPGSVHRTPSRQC
- experimental_details: Functional mobilization of intracellular calcium (FLIPR, Fluo-3), M1-CHO cells
- Type: cell-based
- test_context: compound nos. 455-509; 100% efficacy is the maximum response obtained with the Carbachol control; read-out: M1 Efficacy

Field: example entries. Status: answers known.
1. CN(C)C(=O)N1CC2(CCN(C3CCN(c4cnc(Br)cn4)CC3)CC2)c2ccccc21 [compound 509] :: > 100%
2. CCc1nsc(N2CCC(N3CCC4(CCN(C(C)=O)c5ccccc54)CC3)CC2)n1 [compound 489] :: > 100%
3. CN(C)C(=O)N1CC2(CCN(C3CCN(c4cnc5ccccc5n4)CC3)CC2)c2ccccc21 [compound 497] :: > 100%
4. CN(C)C(=O)N1CC2(CCN(C3CCN(c4cnc(-c5ccncc5)cn4)CC3)CC2)c2ccccc21 [compound 467] :: > 100%
5. Cc1ncc(N2CCC(N3CCC4(CC3)CN(C(=O)N(C)C)c3ccccc34)CC2)nc1C [compound 487] :: > 100%

Hello, I would appreciate it if you could give Emax for each entry below.
1. Cc1csc(N2CCC(N3CCC4(CC3)CN(C(=O)N(C)C)c3ccccc34)CC2)n1 [compound 499]
2. CCCc1cnc(N2CCC(N3CCC4(CC3)CN(C(=O)N(C)C)c3ccccc34)CC2)cn1 [compound 459]
3. CN(C)C(=O)N1CCC2(CCN(C3CCN(c4cnccn4)CC3)CC2)c2ccccc21 [compound 457]
4. CN(C)C(=O)N1CC2(CCN(C3CC4CCC(C3)N4c3cnccn3)CC2)c2ccccc21 (stereo not shown) [compound 500]

["> 100%", "> 100%", "> 100%", "> 100%"]

====

Could you please report measured Emax for the items listed next?
- target: M1 muscarinic receptor (Homo sapiens, UniProt P11229)
- Construct: expressed in transfected cells; host or cells: CHO cells (M1-CHO, under zeocin and G418 selection)
- experimental_details: Functional mobilization of intracellular calcium (FLIPR, Fluo-3), M1-CHO cells
- Assay type: cell-based
- test_context: compound nos. 1-454; 100% efficacy is the maximum response obtained with the Carbachol control; read-out: M1 Efficacy

Field: example entries. Status: answers known.
1. CC(=O)N1CC2(CCN(C3CCN(C(=O)O[C@@H]4CCOC4)CC3)CC2)c2cc(C)ccc21 :: < 65%
2. O=C(O[C@@H]1CCOC1)N1CC2(CCN(C3CC4CCC(C3)N4C(=O)O[C@H]3CCOC3)CC2)c2cc(F)ccc21 (stereo partly shown) :: 65 to 85%
3. O=C(O[C@H]1CCOC1)N1C2CCC1CC(N1CCC3(CCc4ccccc43)CC1)C2 (stereo partly shown) :: 65 to 85%
4. CCOC(=O)N1CCC(CN2CCC3(CC2)C[C@H](NC(C)=O)c2ccccc23)CC1 :: 65 to 85%
5. CC(=O)N1CC2(CCN(C3CCCN(C(=O)OC(C)C)CC3)CC2)c2cc(F)ccc21 (stereo not shown) :: < 65%

Hello, I would appreciate it if you could give Emax for each entry below.
1. CC#CCOC(=O)N1CC2(CCN(C3CCN(C(=O)OCC)CC3)CC2)c2cc(F)ccc21
2. COC(=O)N1CCC(CN2CCC3(CC2)CN(C(C)=O)c2ccc(F)cc23)CC1
3. CC(=O)N[C@H]1CC2(CCN(C3CC4CCC(C4)C3)CC2)c2ccccc21 (stereo partly shown)
4. O=C(O[C@@H]1CCOC1)N1CC2(CCN(C3CC4CCC(C3)N4C(=O)O[C@@H]3CCOC3)CC2)c2cc(F)ccc21 (stereo partly shown)
5. CCOC(=O)N1CCC(C)(CN2CCC3(CC2)C[C@H](NC(C)=O)c2ccccc23)CC1
6. CCCOC(=O)N1C2CCC1CC(N1CCC3(CC1)CN(S(C)(=O)=O)c1ccc(F)cc13)C2 (stereo not shown)
7. COC(=O)N1CCC(N2CCC3(CC2)CN(C(C)=O)c2ccc(F)cc23)CC1
8. CC(=O)NC1CC2(CCN(C[C@H]3C[C@H]4C=C[C@H]3C4)CC2)c2ccccc21 (stereo partly shown)

1. < 65%
2. 65 to 85%
3. < 65%
4. 65 to 85%
5. < 65%
6. > 85%
7. 65 to 85%
8. 65 to 85%

Hello, I would appreciate it if you could give Emax for each entry below.
1. COCCOC(=O)N1C2CCC1CC(N1CCC3(CC1)CN(C(=O)OC1CCC1)c1ccc(F)cc13)C2 (stereo not shown)
2. CN(C)C(=O)N1CC2(CCN(C3CCN(c4ccc(F)cc4)CC3)CC2)c2cc(F)ccc21

65 to 85%
65 to 85%

Hello, I would appreciate it if you could give Emax for each entry below.
1. Cc1ccc2c(c1)C1(CCN(C3CC4CCC3C4)CC1)CN2 (stereo not shown)
2. CC(=O)N1CC2(CCN(C3CCN(c4nccs4)CC3)CC2)c2cc(F)ccc21
3. CCCOC(=O)N1C2CCC1CC(N1CCC3(CC1)CN(C(=O)C1CCC1)c1ccc(F)cc13)C2 (stereo not shown)
4. CCOC(=O)N1CCC(CN2CCC3(CC2)COc2ccc(F)cc23)CC1

1: > 85%; 2: 65 to 85%; 3: < 65%; 4: 65 to 85%
